Ref: PubChem BioAssay (NCI)

tested on: HOP-92 NSCLC; test: NCI tumour cell line growth inhibition, 48 h
Please provide measured TGI for the entries that follow.

Example molecules with recorded TGI:
May I ask what TGI has been recorded for "COc1cc(Nc2ncc(-c3ccccc3)o2)cc(OC)c1OC" ? > 25 µM

May I ask what TGI has been recorded for OCC1CC2CC1C1(C2)OCCO1 (stereo not drawn) ? > 100 µM

Further cases:
May I ask what TGI has been recorded for "Nc1ncc(Cc2nn3c(COc4ccc(Cl)cc4)nnc3s2)s1" ? > 100 µM

###

Please provide measured TGI for the entries that follow.
system: T-47D breast; assay: NCI tumour cell line growth inhibition, 48 h

Write down the reported TGI of "CC(C)(C)OC(=O)N[C@@H](Cc1ccccc1)C(=O)N1CC[C@@H](C(=O)N2[C@H]3CC4CC[C@@]3(CS2(=O)=O)C4(C)C)N1" , test system: T-47D breast. 51.1 µM

Write down the reported TGI of "C[C@@H]1CC[C@H]2C(CN3CCN(CC4=C(C(F)(F)F)O[C@@H]5O[C@@]6(C)CC[C@H]7[C@H](C)CC[C@@H]4[C@@]57OO6)CC3)=C(C(F)(F)F)O[C@@H]3O[C@@]4(C)CC[C@@H]1[C@]32OO4" , test system: T-47D breast. > 100 µM

Write down the reported TGI of C1CCN2CC34CC(CC5CCCN(C6CCCC3N6)C54)C2C1 (stereo unspecified) , test system: T-47D breast. > 100 µM

Write down the reported TGI of "CC1(C)CN=C(c2ccc3ccccc3c2O)N1" , test system: T-47D breast. > 100 µM

Write down the reported TGI of "C=C(C)[C@@H]1CC[C@]2(C#N)CC[C@]3(C)[C@H](CC[C@@H]4[C@@]5(C)CCCNC(C)(C)[C@@H]5CC[C@]43C)[C@@H]12" , test system: T-47D breast. 4.05 µM

Further cases:
Write down the reported TGI of "O=[N+]([O-])c1ccc(-c2nc3ccccc3o2)cc1" , test system: T-47D breast. > 100 µM

###

Please provide measured TGI for the entries that follow.
system: MDA-N; assay: NCI tumour cell line growth inhibition, 48 h

May I ask what TGI has been recorded for COC(=O)C1CC(C=O)=C(SC)N1 (centres undefined) ? > 50 µM

May I ask what TGI has been recorded for "Cc1cc(C(C)(C)C)c(OCCCN2CCOCC2)c(C(C)(C)C)c1" ? 34 µM

May I ask what TGI has been recorded for "CC(C)(C)c1ccc(C(O)(c2ccc(C(C)(C)C)cc2)c2ccc(C(C)(C)C)cc2)cc1" ? > 100 µM

May I ask what TGI has been recorded for "CCSc1nn(-c2c3ccccc3nc3ccccc23)c(=S)s1" ? > 100 µM

May I ask what TGI has been recorded for C[N+](C)(C)c1nc(N)nc2c1ncn2C1OC(CO)C(O)C1O (centres undefined) ? > 100 µM

Give me TGI for each of these compounds, listed below.
1. CC(=O)OCC1OC(O[C@@H]2C[C@H]3C(C)(C)[C@H](OC(C)=O)CC[C@]3(C)[C@H]3CC[C@@H]4[C@]5(CC[C@@]4(C)[C@@]32C)O[C@@H]([C@H](O)C(C)(C)O)C[C@@H]5C)C(O)C(O)C1O (some centres undefined)
2. O/N=C1/CCCCC1NO (centres undefined)
3. CC(CN(C)C)C(O)(c1ccccc1)c1ccccc1 (centres undefined)

["20.1 µM", "> 100 µM", "> 100 µM"]

May I ask what TGI has been recorded for "COc1cc(/C=C2\N=C(c3ccccc3)N(c3ccc(C(=O)c4ccccc4)cc3N3C(=O)/C(=C/c4cc(OC)c(OC)c(OC)c4)N=C3c3ccccc3)C2=O)cc(OC)c1OC" ? 14.9 µM

###

tested on: MOLT-4 leukemia; assay: NCI tumour cell line growth inhibition, 48 h
Measurement Name: TGI

Example compounds with recorded TGI:
Write down the reported TGI of "C/C(=N\NC(=S)Nc1ccc([N+](=O)[O-])cc1S(=O)(=O)O)c1ccccn1" , test system: MOLT-4 leukemia. > 100 µM

Write down the reported TGI of S=C1OC2C3C4CC5C3C(O1)C1C5C4C21 (stereo not drawn) , test system: MOLT-4 leukemia. > 100 µM

Write down the reported TGI of "COc1cc(C(=O)c2c(-c3ccccc3)oc3ccccc23)cc(OC)c1O" , test system: MOLT-4 leukemia. 22.2 µM

Write down the reported TGI of "CCOc1ccc(N2C(N)=NC(N)=NC2(C)C)cc1" , test system: MOLT-4 leukemia. > 100 µM

Write down the reported TGI of "Cc1ccc(C)c2sc3cc(=O)ccc-3nc12" , test system: MOLT-4 leukemia. 69.6 µM

Write down the reported TGI of CC(C)=CCC/C(C)=C/CCC1(C)C2COC(=O)C21 (stereo not drawn) , test system: MOLT-4 leukemia. > 100 µM

Give me TGI for each of these compounds, listed below.
1. COc1cc(/C=C/C=C2\CC(C)C/C(=C\C=C\c3ccc(O)c(OC)c3)C2=O)ccc1O (stereo not drawn)
2. Cc1ccc(C)c(NC(=O)CCc2n[nH]c(=S)o2)c1
3. O=C(c1ccccc1)c1ccc2c(c1)N=C(c1ccc(Cl)c(Cl)c1)CC(c1ccc3ccccc3c1)N2 (stereo not drawn)
4. C[Si](C)(C)[C@@]1([Se]c2ccccc2)CC[C@@H]1C(=O)c1ccccc1
5. CCn1c(-c2cc3ccccc3cc2OC(=O)c2ccccc2)n[nH]c1=S
6. COc1ccc(C2=C(N)c3ccccc3C2=O)cc1
7. O=c1c2c(=NCCCN3CCCC3)cc3c(=O)n(CCCN4CCCC4)c(=O)c4c(NCCCN5CCCC5)cc(c(O)n1CCCN1CCCC1)c2c4-3
8. CC(C)S(=O)(=O)n1c(N)nc2ccc(/C(=N/O)c3ccccc3)cc21

["29.6 µM", "> 100 µM", "> 100 µM", "75.1 µM", "> 50 µM", "> 100 µM", "> 100 µM", "52.2 µM"]

###

system: SNB-19 CNS; test: NCI tumour cell line growth inhibition, 48 h
Please provide measured TGI for the entries that follow.

Write down the reported TGI of "CCCCCCCCSC(SCCCCCCCC)=C1C(=O)N(c2ccccc2)N=C1C" , test system: SNB-19 CNS. > 100 µM

Write down the reported TGI of "C#Cc1ccccc1C(=O)OC" , test system: SNB-19 CNS. > 100 µM

Give me TGI for each of these compounds, listed below.
1. NC(=O)CN1CCN(c2nc(N3CCCC3)c3nc(Cl)c(NCc4ccccc4)nc3n2)CC1
2. CC(C)c1cc2c(O)c(c1)Cc1cc(C(C)C)cc(c1O)Cc1cc(C(C)C)cc(c1O)Cc1cc(C(C)C)cc(c1O)Cc1cc(C(C)C)cc(c1O)Cc1cc(C(C)C)cc(c1O)C2

1: 18.9 µM; 2: > 100 µM

###

test system: MALME-3M melanoma; experiment: NCI tumour cell line growth inhibition, 48 h; in the data active = GI50 below about 0.43 µM; inactive = the rest
Output constraint: value belongs to active, inactive

Observe how each entry below is paired with its result.
For "COc1cc(C=NCC(=O)CSC(c2ccccc2)c2ccccc2)cc(OC)c1OC" , what call appears in the results of this test? inactive

For "C=C1C(=O)O[C@H]2[C@H](OC(C)=O)[C@@H](C)CCC/C(C)=C/CC[C@]3(CO3)[C@H](O)C[C@@H]12" , what call appears in the results of this test? inactive

Further cases:
For CC(Cl)CC(=O)Nc1ccc2c(c1)oc(=O)c1cc(NC(=O)CC(C)Cl)ccc12 (stereo not given) , what call appears in the results of this test? inactive

For Nc1ncnc2c(C3OC(CO)C(O)C3O)c[nH]c12 (stereo not given) , what call appears in the results of this test? active

For "Cc1ccc(Nc2ccnc(Nc3cccc(C(N)=O)c3)n2)cc1O" , what call appears in the results of this test? inactive

###

system: SK-MEL-2 melanoma; experiment: NCI tumour cell line growth inhibition, 48 h
Please provide measured TGI for the entries that follow.

May I ask what TGI has been recorded for "CC(=O)Nc1oc(C)nc1C#N" ? > 100 µM

May I ask what TGI has been recorded for "O=c1c2cc(Cl)ccc2n2nnc3ccc(NCCNCCO)c1c32" ? 5.01 µM

May I ask what TGI has been recorded for "O=C(O)C1(Cc2ccc3c(c2)CCC3)Cc2cc3c(cc2C1)CCC3" ? > 100 µM

May I ask what TGI has been recorded for "COc1ccc(CNc2cnc3cc(N)ccc3n2)cc1OC" ? > 100 µM

May I ask what TGI has been recorded for "CCOC(=O)c1c(C)n(CCN2CCN(C)CC2)c2ccc(OC)cc12" ? 35.3 µM

Give me TGI for each of these compounds, listed below.
1. O=C(n1c(=O)n(-c2ccc([N+](=O)[O-])cc2)c(=O)n1C(=O)C(Cl)(Cl)Cl)C(Cl)(Cl)Cl
2. Cc1nc(Nc2ccc([N+](=O)[O-])cc2)sc1C(=O)/C=C/c1ccc(N(C)C)cc1
3. CCCCC[C@@H]1OC(=O)[C@@]2(CC3c4ccccc4C2c2ccccc23)[C@H]1C(=O)OC

> 100 µM
> 100 µM
> 100 µM
